EXPERIMENTAL_SYSTEM: Human adrenergic α2B receptor (Homo sapiens)
PROTOCOL: Radioligand binding, adrenergic α2B (Protocol Group B)
Set-up: purchased Milipore (Millipore)
CONDITION_PARAMETERS: 10 nM compound; Protocol Group B; 0.01 µM
Experimental: To evaluate the activity of compounds in radioligand binding assays, Human adrenergic α2B receptor obtained from recombinant cell membrane from Milipore. Binding experiments were carried out in Tris-HCl buffer (50 mM Tris-HCl buffer, pH 7.4, 5 mM Mgcl2, 1 mM Cacl2, 0.2% BSA) as recommended by Milipore. […] Non-specific binding was estimated in the presence of 10 μM Rauwolscine. […] Compounds were screened at various concentrations, using 1% DMSO as vehicle. […]
PARAMETER_MEASURED: Percentage inhibition of ligand binding, Adrenergic α2B (10 nM) (%)
Report as a plain number; the unit % is understood.

Consider the reported Percentage inhibition of ligand binding, Adrenergic α2B (10 nM) for these compounds:
COMPOUND: Cc1ccc2c(c1)c1c(n2CC(C)(O)c2cccnc2)CC2CCC1N2C (single isomer, unassigned) [101d]
U: %
EXPERIMENTAL_VALUE: −2
//
COMPOUND: Cc1cc(F)cc2c3c(n(CC(C)(O)c4cccnc4)c12)CCN1CCCC31 (single isomer, unassigned) [75d]
U: %
EXPERIMENTAL_VALUE: 55
//
COMPOUND: Cc1ccc2c(c1)c1c(n2CC(O)c2ccccn2)CC2CCCN2C1 (single isomer, unassigned) [45b]
U: %
EXPERIMENTAL_VALUE: 4
//
COMPOUND: Cc1cc(F)c2c(c1)c1c(n2CC(C)(O)c2cccnc2)CCN2CCCC12 (single isomer, unassigned) [79c]
U: %
EXPERIMENTAL_VALUE: −6
//
COMPOUND: CC(O)(Cn1c2c(c3cc(F)ccc31)C1CCCN1CC2)c1ccncc1 (single isomer, unassigned) [31d]
U: %
EXPERIMENTAL_VALUE: 4

Query: Assign Percentage inhibition of ligand binding, Adrenergic α2B (10 nM) to the following record: Cc1ccc2c(c1)c1c(n2CC(OC2CCCC2)c2ccncc2)CCN(C)C1 (single isomer, unassigned) [35b]
Result: 65

Query: Return reported Percentage inhibition of ligand binding, Adrenergic α2B (10 nM). Input compound: Cc1cc2c3c(n(CC(C)(O)c4ccncc4)c2cc1Cl)CCN1CCCC31 (single isomer, unassigned) [50d]
Result: −8

Query: Identify the reported Percentage inhibition of ligand binding, Adrenergic α2B (10 nM) for the following entry. Cc1ccc2c(c1F)c1c(n2CC(C)(O)c2cccnc2)CCN2CCCC12 (single isomer, unassigned) [87a]
Result: 30

Query: Tell me its Percentage inhibition of ligand binding, Adrenergic α2B (10 nM) given Cc1cc(F)c2c(c1)c1c(n2CC(C)(O)c2ccncc2)CCN2CCCC12 (single isomer, unassigned) [81d] as the entry.
Result: −7

Query: Please give measured Percentage inhibition of ligand binding, Adrenergic α2B (10 nM) of the following entry: Cc1ccc2c(c1)c1c(n2CC(C)(O)c2cccnc2)CC2CCCN2C1 (stereo not drawn) [41d]
Result: 9

Query: Determine its reported Percentage inhibition of ligand binding, Adrenergic α2B (10 nM): Cc1cc(F)c2c(c1)c1c(n2CC(C)(O)c2cccnc2)CC2CCCN2C1 (single isomer, unassigned) [61a]
Result: 38

Query: Look up and state reported Percentage inhibition of ligand binding, Adrenergic α2B (10 nM) for CC(O)(Cn1c2c(c3cc(F)ccc31)C1CCCN1CC2)c1ccncc1 (single isomer, unassigned) [31b]
Result: 68

Query: Give a short answer stating reported Percentage inhibition of ligand binding, Adrenergic α2B (10 nM) for Cc1cc(C)c2c(c1)c1c(n2CC(C)(O)c2ccncc2)CCN2CCCC12 (stereo not drawn) [compound 19] .
Result: 81

Query: Identify the reported Percentage inhibition of ligand binding, Adrenergic α2B (10 nM) for the following entry. Cc1cc(F)cc2c3c(n(CC(C)(O)c4cccnc4)c12)CCN1CCCC31 (single isomer, unassigned) [75c]
Result: 90

Query: Report Percentage inhibition of ligand binding, Adrenergic α2B (10 nM), nothing else, for this compound: Cc1ccc2c(c1)c1c(n2CC(C)(O)c2cncc(F)c2)CCN(C)C1 (single isomer, unassigned) [46b]
Result: 0

====

EXPERIMENTAL_SYSTEM: Human adrenergic α2B receptor (Homo sapiens, UniProt P18089)
Sequence (P18089 1-450): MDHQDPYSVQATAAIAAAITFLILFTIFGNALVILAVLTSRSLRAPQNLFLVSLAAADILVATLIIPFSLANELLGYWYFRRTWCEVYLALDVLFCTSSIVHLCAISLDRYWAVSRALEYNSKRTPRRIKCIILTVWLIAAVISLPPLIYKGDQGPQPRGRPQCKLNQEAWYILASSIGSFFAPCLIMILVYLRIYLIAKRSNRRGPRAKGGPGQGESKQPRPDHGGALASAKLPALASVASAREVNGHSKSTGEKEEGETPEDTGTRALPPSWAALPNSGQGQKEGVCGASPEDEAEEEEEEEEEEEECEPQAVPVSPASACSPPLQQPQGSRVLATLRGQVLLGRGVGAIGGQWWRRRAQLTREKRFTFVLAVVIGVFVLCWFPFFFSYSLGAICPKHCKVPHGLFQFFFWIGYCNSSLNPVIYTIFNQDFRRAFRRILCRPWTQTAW
PROTOCOL: Radioligand binding, adrenergic α2B (Protocol Group A)
Set-up: expressed in transfected cells; host or cells: CHO-K1
CONDITION_PARAMETERS: 0.03 μM compound, [3H]Rauwolscine, read-out: percent inhibition of specific binding, Adrenergic α2B
Collected inhibition at 0.03 µM values appear next to each entry.
Give the number; % is assumed, so skip it.

Known inhibition at 0.03 µM results, listed for orientation:
COMPOUND: Cc1ccc2c(c1)c1c(n2CCc2cncc(S(C)(=O)=O)c2)CCN(C)C1
inhibition at 0.03 µM (%): 64
--
COMPOUND: Cc1ccc2c(c1)c1c(n2/C=C/c2ccncc2)CCN2CCCC12 (centres unmarked)
inhibition at 0.03 µM (%): 108
--
COMPOUND: Cc1ccc2c(c1)c1c(n2CC(OCCCC(=O)O)c2ccncc2)CCN(C)C1 (centres unmarked)
inhibition at 0.03 µM (%): 7
--
COMPOUND: Cc1ccc2c(c1)c1c(n2CC(C)(O)c2ccc(F)nc2)CCN2CCCC12 (single isomer, unassigned) [6a]
inhibition at 0.03 µM (%): 107

# input for lookup
Query: // fetch inhibition at 0.03 µM given entry Cc1ccc2c(c1)c1c(n2CC(C)(O)c2ccc(F)nc2)CCN2CCCC12 (centres unmarked) [6b]
Result: 93

====

EXPERIMENTAL_SYSTEM: UniProt P18089
PROTOCOL: β-Arrestin GPCR functional assay, adrenergic α2B (Protocol B)
Format: cell-based
CONDITION_PARAMETERS: 0.1 μM compound; nor-epinephrine at EC80 (50 nM)
PARAMETER_MEASURED: Percentage inhibition, Adrenergic α2B (%)
Answer in %, number only, no unit symbol.

The following compounds have reported results that may help.
COMPOUND: Cc1ccc2c(c1)c1c(n2CC(O)c2ccncc2F)CCN2CCCC12 (single isomer, unassigned) [14a]
U: %
Percentage inhibition, Adrenergic α2B: 41
//
COMPOUND: Cc1ccc2c(c1)c1c(n2CC(C)(O)c2ccncc2)CCN2CCCC12 (single isomer, unassigned) [13b]
U: %
Percentage inhibition, Adrenergic α2B: 102
//
COMPOUND: Cc1ccc2c(c1)c1c(n2CC(O)c2ccncc2F)CCN2CCCC12 (single isomer, unassigned) [14b]
U: %
Percentage inhibition, Adrenergic α2B: 97

Now look at this one.
Query: Give Percentage inhibition, Adrenergic α2B for the following compound: Cc1cc(C)c2c(c1)c1c(n2CC(C)(O)c2ccncc2)CCN2CCCC12 (single isomer, unassigned) [19b]
Result: 86

====

EXPERIMENTAL_SYSTEM: Human adrenergic α2A receptor (Homo sapiens)
Sequence (P08913 whole entry): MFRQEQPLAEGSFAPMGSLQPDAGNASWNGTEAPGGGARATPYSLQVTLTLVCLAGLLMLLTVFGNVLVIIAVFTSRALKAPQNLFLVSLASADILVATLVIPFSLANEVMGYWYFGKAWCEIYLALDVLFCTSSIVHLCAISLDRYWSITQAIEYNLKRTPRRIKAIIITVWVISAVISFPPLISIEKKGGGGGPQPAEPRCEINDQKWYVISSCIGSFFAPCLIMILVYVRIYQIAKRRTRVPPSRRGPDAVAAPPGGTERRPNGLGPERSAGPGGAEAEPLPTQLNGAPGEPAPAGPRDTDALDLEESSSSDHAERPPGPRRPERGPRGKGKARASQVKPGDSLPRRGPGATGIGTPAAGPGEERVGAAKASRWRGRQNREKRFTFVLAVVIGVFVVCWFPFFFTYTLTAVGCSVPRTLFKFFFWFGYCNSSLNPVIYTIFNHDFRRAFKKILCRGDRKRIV
PROTOCOL: Radioligand binding, adrenergic α2A (Protocol Group B)
Set-up: purchased Milipore (Millipore)
CONDITION_PARAMETERS: 0.3 μM compound; Protocol Group B; 0.3 µM
In this section we review reported Percentage inhibition of ligand binding, Adrenergic α2A (0.3 μM) values for a set of compounds.
Numbers only here, please. The scale is %.

Query: Report measured Percentage inhibition of ligand binding, Adrenergic α2A (0.3 μM); entry is Cc1ccc2c(c1)c1c(n2CC(C)(O)c2cccnc2)CC2CCCN2C1 (stereo not shown) [38a]
Result: 11

Query: Give recorded Percentage inhibition of ligand binding, Adrenergic α2A (0.3 μM). Cc1cc(F)c2c(c1)c1c(n2CC(C)(O)c2ccncc2)CC2CCCN2C1 (single isomer, unassigned) [62b]
Result: 26

Query: Using the record for CC(O)(Cn1c2c(c3cc(F)cc(Cl)c31)C1CCCN1CC2)c1cccnc1 (single isomer, unassigned) [89b] , state its measured Percentage inhibition of ligand binding, Adrenergic α2A (0.3 μM).
Result: 6

Query: Consider the compound Cc1cc(F)c2c(c1)c1c(n2CC(O)c2ccncc2)CCN2CCCC12 (single isomer, unassigned) [137c] and give its recorded Percentage inhibition of ligand binding, Adrenergic α2A (0.3 μM).
Result: 2
